Taken from ChEMBL document CHEMBL1649566.

Below: a set of entries, each annotated with reported pIC50.
# Tested on: Plasmodium falciparum
# MEASUREMENT NOTES: Antimalarial activity against Plasmodium falciparum Kenyan isolates expressing DHFR Ser108Asn and Cys59Arg or Ser108Asn and Asn51Ile double mutant by [3H]hypoxanthine incorporation assay
# Type: functional, organism-based
pIC50: −log10 of the molar value.
MEASURED ATTRIBUTE: pIC50

In [3]: df
Out[3]:
                                   molecule  measured_attribute  readout_value
0  COc1cc(NCc2ccc3nc(N)nc(N)c3c2C)cc(OC)c1OC [TRIMETREXATE]               pIC50           7.39
1      CC1(C)N=C(N)N=C(N)N1c1ccc(Cl)c(Cl)c1               pIC50           7.42
2  CC1(C)N=C(N)N=C(N)N1OCCCOc1cc(Cl)c(Cl)cc1Cl               pIC50          10.16
3  CN(Cc1cnc2nc(N)nc(N)c2n1)c1ccc(C(=O)N[C@@H](CCC(=O)O)C(=O)O)cc1 [METHOTREXATE]               pIC50           7.07
4           COc1cc(Cc2cnc(N)nc2N)cc(OC)c1OC               pIC50           5.03
